Experiment: Apparent permeability of compound in pH 7.4 PBS after 16 hrs by PAMPA assay
Type: ADME
Where a SMILES comes first, the peptide text is derived from it. [ ]: non-standard residue; d: D form. NMeY = CN[C@@H](Cc1ccc(O)cc1)C(=O)O; NMeF = CN[C@@H](Cc1ccccc1)C(=O)O; dNMeF = CN[C@H](Cc1ccccc1)C(=O)O; NMeA = CN[C@@H](C)C(=O)O; dNMeA = CN[C@H](C)C(=O)O; Sar = CNCC(=O)O
REPORTED_PROPERTY: Papp at 16 h (×10⁻⁶ cm/s)
Use ×10⁻⁶ cm/s as the unit, but write only the number.

CC(C)C[C@@H]1NC(=O)[C@H](C(C)C)NC(=O)[C@H](Cc2ccc(O)cc2)N(C)C(=O)[C@H](Cc2ccccc2)NC(=O)CN(C)C(=O)[C@@H]2CCCN2C(=O)[C@@H](Cc2ccccc2)N(C)C1=O [Cordyheptapeptide C] : 1.9
CC[C@H](C)[C@@H]1NC(=O)[C@H](Cc2ccccc2)N(C)C(=O)[C@H](Cc2ccccc2)NC(=O)CN(C)C(=O)[C@@H]2CCCN2C(=O)[C@@H](Cc2ccccc2)N(C)C(=O)[C@H](CC(C)C)NC1=O (cyclo(F[NMeF]IL[dNMeF]P[Sar])) : 2.3
CC[C@H](C)[C@@H]1NC(=O)[C@H](Cc2ccc(O)cc2)N(C)C(=O)[C@H](Cc2ccccc2)NC(=O)CN(C)C(=O)[C@@H]2CCCN2C(=O)[C@@H](C)N(C)C(=O)[C@H](CC(C)C)NC1=O (cyclo(F[NMeY]IL[dNMeA]P[Sar])) : 1.3

Moving on to the next compound.
Note Papp at 16 h for the compound shown: CC[C@H](C)[C@@H]1NC(=O)[C@H](Cc2ccc(O)cc2)N(C)C(=O)[C@H](Cc2ccccc2)NC(=O)CN(C)C(=O)[C@H](C)N(C)C(=O)[C@@H](Cc2ccccc2)N(C)C(=O)[C@H](CC(C)C)NC1=O (cyclo(F[NMeY]IL[dNMeF][NMeA][Sar]))
7.8
